Assay Remarks: Pharmacokinetic (PK) experiment in rats
Type: in vivo
Conditions Used: Sprague-Dawley (SD), rat, plasma, po; male SD rats, fasted; tail vein injection 1 mg/kg and gavage 5 mg/kg; route not given; read-out: AUC0-inf (area under plasma concentration-time curve from time 0 extrapolated to infinite time)
Outcome Measure: AUC(0-inf) (µM·h)
Give the quantity in µM·h, number only.

{"Compound": "N#Cc1cc2n(n1)CC(n1cnc3cnc4[nH]ccc4c31)CC2 (single isomer, unassigned)", "AUC(0-inf) (µM·h)": 8.51}

Now for a further compound.
Query: Suppose we examine the compound COc1nc2cnc3[nH]ccc3c2n1[C@@H]1CCc2cc(C#N)nn2C1 ; what AUC(0-inf) value has been reported?
Result: 67.8

====

Target: TYK2(h) (Homo sapiens, UniProt P29597)
Sequence (P29597 whole entry): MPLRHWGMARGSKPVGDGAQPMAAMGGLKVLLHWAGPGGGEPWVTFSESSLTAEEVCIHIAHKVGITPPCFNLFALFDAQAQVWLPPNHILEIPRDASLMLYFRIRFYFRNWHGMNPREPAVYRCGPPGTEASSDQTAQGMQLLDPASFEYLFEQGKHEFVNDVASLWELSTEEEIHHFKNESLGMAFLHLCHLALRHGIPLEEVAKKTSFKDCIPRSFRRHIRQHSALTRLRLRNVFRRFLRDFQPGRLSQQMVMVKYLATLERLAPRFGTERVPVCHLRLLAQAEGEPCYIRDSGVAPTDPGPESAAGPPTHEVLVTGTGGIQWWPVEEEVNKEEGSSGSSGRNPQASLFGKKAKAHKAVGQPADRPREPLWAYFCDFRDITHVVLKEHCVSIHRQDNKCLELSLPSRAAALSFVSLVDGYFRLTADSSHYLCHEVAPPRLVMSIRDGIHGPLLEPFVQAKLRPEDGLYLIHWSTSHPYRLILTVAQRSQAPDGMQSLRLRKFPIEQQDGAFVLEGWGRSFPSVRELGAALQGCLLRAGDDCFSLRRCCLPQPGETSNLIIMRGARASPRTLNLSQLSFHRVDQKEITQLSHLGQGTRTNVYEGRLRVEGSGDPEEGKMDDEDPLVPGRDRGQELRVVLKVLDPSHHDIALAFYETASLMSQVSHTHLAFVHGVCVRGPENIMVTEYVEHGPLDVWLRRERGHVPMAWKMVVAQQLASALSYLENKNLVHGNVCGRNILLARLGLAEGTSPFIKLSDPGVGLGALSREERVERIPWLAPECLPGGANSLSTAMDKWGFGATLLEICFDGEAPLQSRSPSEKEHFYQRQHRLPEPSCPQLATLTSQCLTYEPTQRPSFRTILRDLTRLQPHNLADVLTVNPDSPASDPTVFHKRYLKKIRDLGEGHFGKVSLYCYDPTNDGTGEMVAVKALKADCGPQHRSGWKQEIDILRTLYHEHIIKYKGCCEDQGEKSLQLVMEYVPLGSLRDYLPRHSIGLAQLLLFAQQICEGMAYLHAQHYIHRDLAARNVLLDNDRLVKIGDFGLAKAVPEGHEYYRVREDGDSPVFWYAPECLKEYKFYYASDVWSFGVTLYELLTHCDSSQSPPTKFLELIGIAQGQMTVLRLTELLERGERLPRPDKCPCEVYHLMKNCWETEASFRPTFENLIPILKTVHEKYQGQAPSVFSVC
Assay Remarks: In vitro activity assay of TYK2 kinase (radiometric, [γ-33P]-ATP)
Conditions Used: recombinant human Tyk2, 40 min at room temperature
Outcome Measure: log10 IC50 (log10 of the value in nM)
Friendly reminder: values = log10 of IC50, unit nM.

// worked examples, log10 IC50 included
{"Compound": "Cc1nc2cnc3[nH]ccc3c2n1C1CCc2cc(C#N)nn2C1 (single isomer, unassigned)", "log10 IC50": 0.30}
{"Compound": "C[C@@H](O)c1nc2cnc3[nH]ccc3c2n1[C@H]1CCc2cc(C#N)nn2C1", "log10 IC50": 1.09}
{"Compound": "N#Cc1cc2n(n1)CC(n1cnc3cnc4[nH]ccc4c31)CC2 (single isomer, unassigned)", "log10 IC50": 1.55}
{"Compound": "COc1nc2cnc3[nH]ccc3c2n1[C@H]1CCc2cc(C#N)nn2C1", "log10 IC50": 2.11}
{"Compound": "N#Cc1cc2n(n1)CC(n1c(C(F)(F)F)nc3cnc4[nH]ccc4c31)CC2 (single isomer, unassigned)", "log10 IC50": 1.76}

Query: What measured log10 IC50 goes with C[C@@H](O)c1nc2cnc3[nH]ccc3c2n1[C@@H]1CCc2cc(C#N)nn2C1 ?
Result: 2.36

Query: Need log10 IC50 of COc1nc2cnc3[nH]ccc3c2n1[C@@H]1CCc2cc(C#N)nn2C1 , thanks.
Result: 1.70

====

Target: JAK1(h) (Homo sapiens, UniProt P23458)
Sequence (P23458 whole entry): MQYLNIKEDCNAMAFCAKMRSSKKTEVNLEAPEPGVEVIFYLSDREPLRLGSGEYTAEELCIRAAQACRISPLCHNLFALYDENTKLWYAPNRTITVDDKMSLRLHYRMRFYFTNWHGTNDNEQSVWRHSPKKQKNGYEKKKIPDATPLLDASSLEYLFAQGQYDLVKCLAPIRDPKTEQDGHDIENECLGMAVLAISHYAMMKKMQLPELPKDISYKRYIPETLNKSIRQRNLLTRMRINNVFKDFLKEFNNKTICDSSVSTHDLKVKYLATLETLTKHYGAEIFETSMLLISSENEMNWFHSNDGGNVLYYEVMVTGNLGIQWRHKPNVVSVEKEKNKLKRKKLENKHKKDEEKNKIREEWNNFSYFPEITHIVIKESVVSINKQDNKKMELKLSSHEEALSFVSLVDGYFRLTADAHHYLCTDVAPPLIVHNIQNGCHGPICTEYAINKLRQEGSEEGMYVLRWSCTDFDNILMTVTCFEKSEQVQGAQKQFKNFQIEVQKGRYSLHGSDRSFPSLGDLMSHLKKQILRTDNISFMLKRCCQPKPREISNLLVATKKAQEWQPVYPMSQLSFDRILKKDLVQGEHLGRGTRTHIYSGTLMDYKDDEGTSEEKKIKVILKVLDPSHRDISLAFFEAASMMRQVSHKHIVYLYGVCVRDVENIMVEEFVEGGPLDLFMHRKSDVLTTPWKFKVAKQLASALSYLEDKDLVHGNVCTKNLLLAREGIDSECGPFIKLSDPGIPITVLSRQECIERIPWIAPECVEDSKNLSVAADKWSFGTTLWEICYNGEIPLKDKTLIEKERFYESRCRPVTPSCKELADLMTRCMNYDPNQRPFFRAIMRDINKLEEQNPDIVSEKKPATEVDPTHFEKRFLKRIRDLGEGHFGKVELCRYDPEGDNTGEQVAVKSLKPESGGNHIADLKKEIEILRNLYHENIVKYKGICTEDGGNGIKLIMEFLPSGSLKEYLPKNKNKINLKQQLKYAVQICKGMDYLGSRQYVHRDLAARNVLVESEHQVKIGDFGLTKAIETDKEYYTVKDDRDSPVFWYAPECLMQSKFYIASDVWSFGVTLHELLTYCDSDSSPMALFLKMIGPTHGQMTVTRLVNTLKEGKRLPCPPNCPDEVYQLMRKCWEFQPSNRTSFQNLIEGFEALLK
Assay Remarks: In vitro activity assay of JAK1 kinase (radiometric, [γ-33P]-ATP)
Conditions Used: recombinant human JAK1, 40 min at room temperature
Outcome Measure: log10 of IC50 (log10 of the value in nM)
Hi team, quick reminder: these entries are log10 of IC50 (nM).

{"Compound": "C[C@@H](O)c1nc2cnc3[nH]ccc3c2n1[C@@H]1CCc2cc(C#N)nn2C1", "log10 of IC50": 0.95}
{"Compound": "COc1nc2cnc3[nH]ccc3c2n1[C@H]1CCc2cc(C#N)nn2C1", "log10 of IC50": 0.36}

Query: Can you look up the measured log10 of IC50 of COc1nc2cnc3[nH]ccc3c2n1[C@@H]1CCc2cc(C#N)nn2C1 for me?
Result: -0.05

Query: So what's the measured log10 of IC50 for this one? N#Cc1cc2n(n1)CC(n1cnc3cnc4[nH]ccc4c31)CC2 (single isomer, unassigned)
Result: 0.11

Query: Sample N#Cc1cc2n(n1)CC(n1c(C(F)(F)F)nc3cnc4[nH]ccc4c31)CC2 (single isomer, unassigned) — what was its log10 of IC50?
Result: 0.48

Query: Suppose we examine the compound C[C@@H](O)c1nc2cnc3[nH]ccc3c2n1[C@H]1CCc2cc(C#N)nn2C1 ; what log10 of IC50 value has been reported?
Result: -0.52
